Source of measurements: PubChem BioAssay (NCI)

Examples of compounds with documented TGI follow.
# System: HT29 colon
# assayOverview: NCI tumour cell line growth inhibition, 48 h

Check out these entries, answers already filled in.
CN1CCCCC1CCN1c2ccccc2Sc2ccc(Cl)cc21 (stereo not given) : 11.1 µM
CC(=O)NC(Cc1ccc(O)cc1)C(=O)O (stereo not given) : > 100 µM

Req: Form field: TGI recorded for O=c1ccc(-c2ccccc2)n[nH]1 with HT29 colon (enter value)
Resp: > 100 µM

Req: Form field: TGI recorded for O=C1/C(=C/c2ccc(O)c(O)c2)CCC/C1=C\c1ccc(O)c(O)c1 with HT29 colon (enter value)
Resp: 21.2 µM

Req: Form field: TGI recorded for CCOC(=O)c1csc(NC(=O)CN2CCOCC2)n1 with HT29 colon (enter value)
Resp: > 100 µM

Req: Form field: TGI recorded for Nc1ccccc1S(=O)(=O)N(CC(=O)O)c1ccccc1 with HT29 colon (enter value)
Resp: > 100 µM

Req: Form field: TGI recorded for Cc1ccc([N+](=O)[O-])cc1NC1=NCCO1 with HT29 colon (enter value)
Resp: > 100 µM

Req: Form field: TGI recorded for CCOC(=O)C(SCCO)C(C(=O)OCC)n1cnc2c(=O)[nH]c(NC(C)=O)nc21 (stereo not given) with HT29 colon (enter value)
Resp: > 100 µM

Req: Form field: TGI recorded for COc1ccc(COCCOCc2nc(C#N)c(N)o2)cc1 with HT29 colon (enter value)
Resp: > 100 µM

====

# Tested on: ACHN renal
# assayOverview: NCI tumour cell line growth inhibition, 48 h; in the data active = GI50 below about 0.43 µM; inactive = the rest
// classify into active, inactive

Example cases with answers are listed next.
O=C1c2ccccc2-c2c1c1ccccc1c(=O)n2CCNCCNCCNCCn1c2c(c3ccccc3c1=O)C(=O)c1ccccc1-2 : active
COC([CH2][Hg][n]1cnc2c1c(=O)n(C)c(=O)n2C)CN1C(=O)c2ccccc2S1(=O)=O (centres undefined) : inactive
Nc1nc(-n2c(-c3ccccc3)nc3c(Br)cc(Br)cc3c2=O)nnc1-c1cccc(Cl)c1Cl : inactive

Now consider a different molecule.
Req: # lookup: test call for COc1cc2c(cc1OCCCCN1CCN(CC(=O)Nc3ccc(Cl)cc3C(=O)c3ccccc3Cl)CC1)N=CC1CCCN1C2=O (centres undefined)
Resp: inactive

====

# System: HOP-62 NSCLC
# assayOverview: NCI tumour cell line growth inhibition, 48 h
observationType: GI50

Req: # GI50 lookup, item COC1/C=C/OC2(C)Oc3c(C)c(O)c4c(O)c(c(/C=N/Nc5ccc([N+](=O)[O-])cc5[N+](=O)[O-])c(O)c4c3C2=O)NC(=O)C(C)=C/C=C/C(C)C(O)C(C)C(O)C(C)C(OC(C)=O)C1C (stereo not drawn)
Resp: 2470 nM

Req: # GI50 lookup, item Nc1ccccc1C#C/C=C\C#Cc1ccccc1OC(F)(F)F
Resp: 6100 nM

Req: # GI50 lookup, item CCC(=O)[C@H](C)[C@@H](OC(=O)[C@H](C)CC)[C@H](C)[C@H]1OC(CC)=C(C)C(=O)[C@@H]1C
Resp: 21200 nM

Req: # GI50 lookup, item O=C1c2ccccc2-c2c1c1ccccc1c(=O)n2CCNCCNCCNCCn1c2c(c3ccccc3c1=O)C(=O)c1ccccc1-2
Resp: 48.3 nM

Req: # GI50 lookup, item COc1cc2c(c(OC)c1OC)-c1ccc(NNC(N)=S)c(=O)cc1[C@@H](NC(C)=O)CC2
Resp: 739 nM

Req: # GI50 lookup, item Cc1ccc2c(C)c3c(ccc4ccccc43)c[n+]2c1
Resp: 5930 nM

Req: # GI50 lookup, item COc1ccc2c(c1)sc1nc(-c3ccccc3)c(-c3cccc4ccccc34)n12
Resp: 538 nM

Req: # GI50 lookup, item CCC[CH2][Sn]([CH2]CCC)([S]c1cccc2cccnc12)[S]c1cccc2cccnc12
Resp: 355 nM
